Attribution: ChEMBL document CHEMBL1129240

- ASSAY REMARKS: Cytotoxic concentration required to cause microscopically detectable alteration of normal cell morphology of HeLa cells
- Assay type: cell-based
- CONDITION SET: human, read-out: CC50
ASSAY METRIC: MCC (µg/mL)
Report the figure in µg/mL without appending any unit label.

Past entries and their recorded results:
CC(O)CSCc1cnc2ncccn12 (stereo unspecified); 400
Cc1c(Br)cn2c(CSCc3ccccc3)cnc2c1Br; 40

// next item, MCC requested
QUERY: Need MCC, item Cc1ccn2c(CSCC(C)O)cnc2c1 (stereo unspecified)
RESULT: 400

====

- Tested on: Cytomegalovirus
- ASSAY REMARKS: Minimum Inhibition Concentration (MIC) for activity against Cytomegalovirus (CMV) using Davis strain
- Assay type: functional
- CONDITION SET: Human betaherpesvirus 5
Listed below: MIC values for each entry.
Report the figure in µg/mL without appending any unit label.

Cc1ccn2c(CSCc3ccccc3)cnc2c1; 3.5
Cc1cccn2c(CSCc3ccccc3)cnc12; 0.2

// next item, MIC requested
QUERY: Need MIC, item Cc1c(Br)cn2c(CSCc3ccccc3)cnc2c1Br
RESULT: 2
